Sourced from ChEMBL document CHEMBL1152539

# Tested on: Raji
# TEST_DESCRIPTION: Inhibition of 12-O-tetradecanoylphorbol-13-acetate-induced EBV-early antigen activation in human Raji cells assessed as EA induction at 10 molar ratio after 48 hrs by immunofluorescence technique relative to 12-O-tetradecanoylphorbol-13-acetate
# Assay type: cell-based
# Design: scale not given: the % may be the effect or the level left
# MEASUREMENT_PARAMETERS: human gammaherpesvirus 4
In this section we review reported Activity values for a set of compounds.
Supply the numeric figure in %, leaving out any unit text.

Use these answered entries as a reference point.
[
  {
    "COMPOUND": "CC(C)=CCC1=C(O)C(=O)c2ccccc2C1=O",
    "ASSAYED_SYSTEM": "Raji",
    "Activity, %": 86.6
  },
  {
    "COMPOUND": "C[C@@H](O)c1cc2c(o1)C(=O)c1cccc(O)c1C2=O",
    "ASSAYED_SYSTEM": "Raji",
    "Activity, %": 59.4
  }
]

Asked: Give Activity for CC(=O)c1cc2c(o1)C(=O)c1cccc(O)c1C2=O
Given back: 56

Asked: State its Activity for this compound: C[C@@H](O)c1cc2c(o1)C(=O)c1c(O)cccc1C2=O
Given back: 76.3

Asked: Respond only with Activity recorded for CC(O)c1cc2c(o1)C(=O)c1c(O)cccc1C2=O (racemic)
Given back: 84.6

Asked: Give Activity for the following compound: CC1(C)CCC2=C(O1)c1ccccc1C(=O)C2=O
Given back: 73.1
